Data origin, for the record: the supplement of paper PMC10567573

B1: FAM50A (parent)
chain: KKREKQREQMEQMKQRIAEENIMK

# Variants of: B1
# Assay Protocol: protein stability index of a GFP-peptide fusion (GPS, HEK-293T) (PSI 1-6); higher = more stable;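 also: lentivirally expressed fusions sorted by FACS into six bins by GFP to DsRed ratio, PSI derived from sequencing read proportions per bin multiplied by bin number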
# Assay Setup: c terminus: a fixed tail appended
Measured Quantity: protein stability index

[
  {
    "Residue Change": "Q9D",
    "Measured Quantity": "protein stability index",
    "Readout Value": 4.96
  },
  {
    "Residue Change": "E8W",
    "Measured Quantity": "protein stability index",
    "Readout Value": 3.68
  },
  {
    "Residue Change": "I22K",
    "Measured Quantity": "protein stability index",
    "Readout Value": 4.16
  },
  {
    "Residue Change": "R7A",
    "Measured Quantity": "protein stability index",
    "Readout Value": 4.91
  },
  {
    "Residue Change": "E11Y",
    "Measured Quantity": "protein stability index",
    "Readout Value": 4.25
  },
  {
    "Residue Change": "E19G",
    "Measured Quantity": "protein stability index",
    "Readout Value": 4.78
  },
  {
    "Residue Change": "E19V",
    "Measured Quantity": "protein stability index",
    "Readout Value": 3.47
  },
  {
    "Residue Change": "I17R",
    "Measured Quantity": "protein stability index",
    "Readout Value": 4.77
  },
  {
    "Residue Change": "K5C",
    "Measured Quantity": "protein stability index",
    "Readout Value": 5.05
  },
  {
    "Residue Change": "Q6C",
    "Measured Quantity": "protein stability index",
    "Readout Value": 4.17
  },
  {
    "Residue Change": "E11Q",
    "Measured Quantity": "protein stability index",
    "Readout Value": 4.68
  },
  {
    "Residue Change": "N21C",
    "Measured Quantity": "protein stability index",
    "Readout Value": 4.63
  },
  {
    "Residue Change": "E20W",
    "Measured Quantity": "protein stability index",
    "Readout Value": 3.47
  },
  {
    "Residue Change": "E4K",
    "Measured Quantity": "protein stability index",
    "Readout Value": 4.28
  },
  {
    "Residue Change": "Q15N",
    "Measured Quantity": "protein stability index",
    "Readout Value": 4.8
  },
  {
    "Residue Change": "M10I",
    "Measured Quantity": "protein stability index",
    "Readout Value": 4.7
  },
  {
    "Residue Change": "R3T",
    "Measured Quantity": "protein stability index",
    "Readout Value": 5.2
  },
  {
    "Residue Change": "Q12C",
    "Measured Quantity": "protein stability index",
    "Readout Value": 5.05
  },
  {
    "Residue Change": "M23H",
    "Measured Quantity": "protein stability index",
    "Readout Value": 4.89
  },
  {
    "Residue Change": "E4T",
    "Measured Quantity": "protein stability index",
    "Readout Value": 4.09
  },
  {
    "Residue Change": "A18M",
    "Measured Quantity": "protein stability index",
    "Readout Value": 4.12
  },
  {
    "Residue Change": "I22H",
    "Measured Quantity": "protein stability index",
    "Readout Value": 4.8
  }
]
